Each recorded value in this set is attributed to patent US20080261994A1.

- ASSAYED_SYSTEM: MMP-1 (Homo sapiens, UniProt P03956)
- Sequence (P03956 100-469, species assumed): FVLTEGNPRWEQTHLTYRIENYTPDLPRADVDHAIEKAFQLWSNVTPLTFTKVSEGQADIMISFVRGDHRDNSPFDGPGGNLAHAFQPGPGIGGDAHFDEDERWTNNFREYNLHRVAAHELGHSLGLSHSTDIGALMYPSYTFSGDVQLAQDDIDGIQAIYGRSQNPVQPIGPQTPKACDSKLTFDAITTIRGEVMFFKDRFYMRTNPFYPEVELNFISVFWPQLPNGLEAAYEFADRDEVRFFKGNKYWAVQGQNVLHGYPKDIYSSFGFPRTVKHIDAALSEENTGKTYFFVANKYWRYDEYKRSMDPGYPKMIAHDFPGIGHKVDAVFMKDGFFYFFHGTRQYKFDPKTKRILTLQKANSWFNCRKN
- ASSAY_PROTOCOL: MMP-1 inhibitory action (Type I collagen Activity Measurement kit, FITC-labeled collagen type I)
- Format: biochemical
- REPORTED_CONDITIONS: MMP-1 inhibitory action, FITC-labeled collagen type I, 37° C. for 3 hr; read-out: IC50 MMP1 (Experimental Example 2)
- Method: For MMP-1 Assay, Type I collagen Activity Measurement kit (YAGAI YU-72013) modified to a 96-well plate format was used. The principle of the kit is based on the property of collagen that becomes soluble in ethanol after being cleaved by MMP-1. […] The reaction was terminated by addition of Tris-HCl buffer containing ethanol. […] The collagenase activity of MMP-1 was determined by measuring FITC fluorescence intensity (excitation wavelength 485 nm, emission wavelength 530 nm) of each well. […]
Exercise: state measured IC50 for each of the compounds provided.

// worked examples, IC50 included
>>> print(df.to_string())
                                   compound  readout   result
0  O=C(O)C1(NS(=O)(=O)c2ccc(-c3ccc(Cl)cc3)cc2)CC1c1cccc(-c2ccccc2)c1 (stereo not shown)     IC50  ≥ 10 µM
1  O=C(O)C1(NS(=O)(=O)c2ccc(-c3ccc(Cl)cc3)s2)CC1c1ccccc1OCc1cccnc1 (stereo not shown)     IC50  ≥ 10 µM
2  O=C(O)C1(NS(=O)(=O)N2CCc3c([nH]c4ccccc34)C2)CC1c1ccccc1 (stereo not shown)     IC50  ≥ 10 µM
3  Cc1csc(-c2cccc(C3CC3(NS(=O)(=O)c3ccc(-c4ccc(Cl)cc4)s3)C(=O)O)c2)n1 (stereo not shown)     IC50  ≥ 10 µM

Go through the items and report each one's IC50.
1. COc1cccc(C2CC2(NS(=O)(=O)c2ccc(-c3ccc(Cl)cc3)s2)C(=O)O)c1 (stereo not shown)
2. CC(C)(C)NCCOc1ccccc1C1CC1(NS(=O)(=O)c1ccc(-c2ccc(Cl)cc2)s1)C(=O)O (stereo not shown)
3. NC(=O)c1cccc(C2CC2(NS(=O)(=O)c2ccc(-c3ccc(Cl)cc3)s2)C(=O)O)c1 (stereo not shown)
4. C=CC1CC1(NS(=O)(=O)c1ccc(-c2ccc(Cl)cc2)s1)C(=O)O (stereo not shown)
5. O=C(NC1CC1)c1ccc(S(=O)(=O)NC2(C(=O)O)CC2c2ccccc2)s1 (stereo not shown)
6. O=C(O)C1(NS(=O)(=O)c2ccc(-c3ccc(Cl)cc3)cc2)CC1c1cccc(OCCN2CCOCC2)c1 (stereo not shown)
7. O=C(O)[C@]1(NS(=O)(=O)c2ccc(-c3ccc(Cl)cc3)cc2)C[C@@H]1c1ccccc1

Reply:
1: ≥ 1 µM; 2: ≥ 10 µM; 3: ≥ 1 µM; 4: ≥ 10 µM; 5: ≥ 10 µM; 6: ≥ 1 µM; 7: ≥ 1 µM

Go through the items and report each one's IC50.
1. O=C(O)[C@]1(NS(=O)(=O)c2ccc(-c3ccc(Cl)nc3)s2)C[C@@H]1c1ccccc1
2. Cc1ccc(-c2ccc(S(=O)(=O)NC3(C(=O)O)CC3c3ccccc3)s2)cc1 (stereo not shown)
3. O=C(O)C1(NS(=O)(=O)c2ccc(-c3ccc(Cl)cc3)s2)CC1C1CCCCC1 (stereo not shown)
4. CS(=O)(=O)Nc1cccc(C2CC2(NS(=O)(=O)c2ccc(-c3ccc(Cl)cc3)cc2)C(=O)O)c1 (stereo not shown)
5. CN1CCC(N(C)Cc2cccc(C3CC3(NS(=O)(=O)c3ccc(-c4ccc(Cl)cc4)s3)C(=O)O)c2)CC1 (stereo not shown)

Reply:
1. ≥ 10 µM
2. ≥ 1 µM
3. ≥ 10 µM
4. ≥ 10 µM
5. ≥ 10 µM
